B1: ANKRD40 (parent)
chain: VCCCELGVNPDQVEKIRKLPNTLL

Variants of: B1
experimental.protocol: protein stability index of a GFP-peptide fusion (GPS, HEK-293T) (PSI 1-6); higher = more stable;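 further: lentivirally expressed fusions sorted by FACS into six bins by GFP to DsRed ratio, PSI derived from sequencing read proportions per bin multiplied by bin number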
assay.context: c terminus: a fixed tail appended
Assign fulfilled to entries whose protein stability index meets or exceeds 2; assign not fulfilled to the rest.

• R17C = not fulfilled
• L24T = not fulfilled
• V8S = fulfilled
• R17K = fulfilled
• I16A = fulfilled
• L6N = fulfilled
• V1T = not fulfilled
• P20H = fulfilled
• E5H = fulfilled
• L24A = not fulfilled
• C4T = fulfilled
• G7P = not fulfilled
• C2S = fulfilled
• E5G = not fulfilled
• N9R = not fulfilled
• V8I = not fulfilled
• C2N = fulfilled
• P20M = not fulfilled
• E5P = fulfilled
• V13G = fulfilled
• Q12C = fulfilled
• P10G = fulfilled
• D11A = not fulfilled
• P20D = not fulfilled
• C4H = fulfilled
• C2F = not fulfilled
• N9V = not fulfilled
• T22N = not fulfilled
• L19V = fulfilled
• K15W = fulfilled
• C3V = fulfilled
• L6R = fulfilled
• D11I = not fulfilled
• L6V = fulfilled
• Q12W = fulfilled
• K15F = fulfilled
• C2Q = fulfilled
• L19G = fulfilled
• L24R = not fulfilled
• D11P = not fulfilled
• Q12F = fulfilled
• N9C = not fulfilled
